test-target: Human HER3, endogenous, on human cancer cell lines (SK-Br-3, MCF7, BT-474) (human, UniProt P21860 20-1342)
Sequence (P21860 20-1342): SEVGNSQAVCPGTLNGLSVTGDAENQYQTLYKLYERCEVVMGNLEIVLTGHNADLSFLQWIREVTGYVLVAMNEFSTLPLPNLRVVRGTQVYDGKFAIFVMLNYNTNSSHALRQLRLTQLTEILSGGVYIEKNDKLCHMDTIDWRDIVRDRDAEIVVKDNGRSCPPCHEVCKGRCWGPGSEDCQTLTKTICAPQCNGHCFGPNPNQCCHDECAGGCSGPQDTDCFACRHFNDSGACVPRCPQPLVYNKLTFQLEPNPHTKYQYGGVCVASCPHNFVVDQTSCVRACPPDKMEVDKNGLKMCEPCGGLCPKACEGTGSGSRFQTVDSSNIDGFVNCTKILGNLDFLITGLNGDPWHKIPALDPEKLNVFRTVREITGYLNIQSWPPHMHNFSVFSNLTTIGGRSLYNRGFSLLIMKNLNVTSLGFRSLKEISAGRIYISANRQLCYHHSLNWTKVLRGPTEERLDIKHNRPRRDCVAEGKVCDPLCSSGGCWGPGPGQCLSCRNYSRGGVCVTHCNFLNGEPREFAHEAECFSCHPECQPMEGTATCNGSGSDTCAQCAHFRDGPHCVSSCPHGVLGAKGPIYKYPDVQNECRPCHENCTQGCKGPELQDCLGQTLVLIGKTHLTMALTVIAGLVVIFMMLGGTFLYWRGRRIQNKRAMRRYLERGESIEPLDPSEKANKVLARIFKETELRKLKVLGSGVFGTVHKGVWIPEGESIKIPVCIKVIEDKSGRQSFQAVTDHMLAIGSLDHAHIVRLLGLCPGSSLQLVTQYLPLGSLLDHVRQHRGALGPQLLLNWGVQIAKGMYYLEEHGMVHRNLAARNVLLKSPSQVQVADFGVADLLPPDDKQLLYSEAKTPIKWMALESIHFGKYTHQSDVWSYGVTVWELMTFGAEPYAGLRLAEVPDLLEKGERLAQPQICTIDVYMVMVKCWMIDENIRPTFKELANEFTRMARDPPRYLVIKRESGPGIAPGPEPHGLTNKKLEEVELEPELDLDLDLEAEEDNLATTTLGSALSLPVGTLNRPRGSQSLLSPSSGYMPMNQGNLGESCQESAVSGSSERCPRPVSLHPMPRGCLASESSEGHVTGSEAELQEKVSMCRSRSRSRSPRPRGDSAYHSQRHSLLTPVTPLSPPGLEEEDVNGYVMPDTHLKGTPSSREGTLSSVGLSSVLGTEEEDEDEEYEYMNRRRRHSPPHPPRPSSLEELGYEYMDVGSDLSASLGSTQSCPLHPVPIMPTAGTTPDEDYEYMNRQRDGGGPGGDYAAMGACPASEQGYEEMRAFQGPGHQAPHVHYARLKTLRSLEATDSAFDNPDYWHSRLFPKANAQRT
assay: cell-based or functional assay
measured-property: MCF7 pAkt (S473) IC50 (pM)
Could you give me the number in pM? Just the number is fine.

* MOR13759 (antibody, human IgG1, kappa, V domains shown, tested as IgG) VH: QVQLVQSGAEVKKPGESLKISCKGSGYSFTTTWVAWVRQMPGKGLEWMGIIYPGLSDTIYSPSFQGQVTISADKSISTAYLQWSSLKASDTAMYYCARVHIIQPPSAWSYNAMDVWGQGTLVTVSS VL: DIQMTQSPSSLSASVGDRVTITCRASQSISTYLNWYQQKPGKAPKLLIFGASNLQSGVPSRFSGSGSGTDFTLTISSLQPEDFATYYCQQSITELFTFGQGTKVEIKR | 248

Inquiry: Entry MOR13766 (antibody, human IgG1, kappa, V domains shown, tested as IgG) VH: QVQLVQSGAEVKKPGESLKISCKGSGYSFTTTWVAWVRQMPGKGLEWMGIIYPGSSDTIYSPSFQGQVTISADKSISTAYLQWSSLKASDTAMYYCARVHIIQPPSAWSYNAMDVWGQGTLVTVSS VL: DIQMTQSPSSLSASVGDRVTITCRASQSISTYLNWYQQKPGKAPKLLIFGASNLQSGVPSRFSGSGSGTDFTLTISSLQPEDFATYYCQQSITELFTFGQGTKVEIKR : reported MCF7 pAkt (S473) IC50 = ?
Reply text: 296
